Test system: AMP-activated protein kinase (AMPK)
Experiment: ADP Quest assay for AMPK activators
Type: biochemical
Set-up: key: fold AMPK activation with vs without activator at 30 µM
Conditions: fold of AMPK activation to phosphorylate SAMS peptide without and with an activator at the concentration of 30 µM
measured_quantity: E30
Hey, just send me the number, nothing else.

Lookup: Which E30 is reported with AMP-activated protein kinase (AMPK) for this entry: CC1(C)Cc2cc(C(=O)NS(=O)(=O)C3CC3)ccc2NC1c1cccc(N2C(=O)OC[C@@H]2Cc2ccccc2)c1 (some centres unmarked) [Example 132] ?
Found: 1.23

Lookup: Given the entry CC(C)(Nc1cccc(C2Nc3ccc(C(=O)O)cc3CC2(C)C)c1)C(=O)N1CCOCC1 (centres unmarked) [Example 41] , what E30 was observed with AMP-activated protein kinase (AMPK)?
Found: 1.35

Lookup: Can you look up E30 on AMP-activated protein kinase (AMPK) for CC1(C)Cc2cc(C(=O)O)ccc2NC1c1ccc(NS(=O)(=O)c2ccccc2F)cc1 (centres unmarked) [Example 213] ?
Found: 1.27

Lookup: Identify the measured E30 of CNS(=O)(=O)c1cccc(C2Nc3ccc(C(=O)O)cc3CC2(C)C)c1 (centres unmarked) [Example 228] for AMP-activated protein kinase (AMPK).
Found: 1.38

Lookup: # returns recorded E30 (system: AMP-activated protein kinase (AMPK)) for CC1(C)Cc2cc(C(=O)O)ccc2NC1c1ccc(F)c(NC(=O)C2CCCCC2)c1 (centres unmarked) [Example 211]
Found: 1.41

Lookup: // map CC(C)Oc1ccc(-c2cccc(C3Nc4ccc(C(=O)NS(C)(=O)=O)cc4CC3(C)C)c2)cc1 (centres unmarked) [Example 85] to recorded E30 (system: AMP-activated protein kinase (AMPK))
Found: 1.29

Lookup: Form field: E30 recorded for CC1(C)Cc2c(cc(F)cc2C(=O)NS(=O)(=O)C2CC2)NC1c1cccc(N2CCOCC2)c1 (centres unmarked) [Example 138] with AMP-activated protein kinase (AMPK) (enter value)
Found: 1.21

Lookup: E30 of CC(C)(C)NC(=O)c1ccc(-c2cccc(C3Nc4ccc(C(=O)NS(C)(=O)=O)cc4CC3(C)C)c2)cc1 (centres unmarked) [Example 160] on AMP-activated protein kinase (AMPK)?
Found: 1.23

Lookup: Request body: readout E30, system AMP-activated protein kinase (AMPK), query CN(C)c1ccc(-c2cccc(C3Nc4c(cc(Cl)cc4C(=O)NS(=O)(=O)C4CC4)CC3(C)C)c2)cc1 (centres unmarked) [Example 141] . Return the value.
Found: 1.3

Lookup: // lookup E30 | system=AMP-activated protein kinase (AMPK) | key= CC(C)NS(=O)(=O)c1cccc(C2Nc3ccc(C(=O)O)cc3CC2(C)C)c1 (centres unmarked) [Example 221]
Found: 1.33

Lookup: Reported E30 for AMP-activated protein kinase (AMPK), given CC1(C)Cc2cc(C(=O)O)ccc2NC1c1cccc(C(=O)NS(=O)(=O)c2ccccc2)c1 (centres unmarked) [Example 175] ?
Found: 1.5

Lookup: Checklist item: E30 tested on AMP-activated protein kinase (AMPK), entry CC1(C)Cc2c(cc(F)cc2C(=O)O)NC1c1cccc(N2CCOCC2)c1 (centres unmarked) [Example 134] , value?
Found: 1.32

Lookup: For the record CC1(C)Cc2cc(C(=O)O)ccc2NC1c1ccc(F)c(NS(=O)(=O)c2cccc(F)c2)c1 (centres unmarked) [Example 206] , what value of E30 is listed for AMP-activated protein kinase (AMPK)?
Found: 1.33

Lookup: Checklist item: E30 tested on AMP-activated protein kinase (AMPK), entry CN1CCN(C(=O)Nc2cccc(C3Nc4ccc(C(=O)O)cc4CC3(C)C)c2)CC1 (centres unmarked) [Example 27] , value?
Found: 1.24

Lookup: Enter reported E30 observed with AMP-activated protein kinase (AMPK) for CN(C)C(=O)C(C)(C)Nc1cccc(C2Nc3ccc(C(=O)O)cc3CC2(C)C)c1 (centres unmarked) [Example 40]
Found: 1.35

Lookup: Lab request: please report E30 under test system AMP-activated protein kinase (AMPK) for CN1CCN(c2cccc(C3Nc4ccc(C(=O)O)cc4CC3(C)C)c2)CC1 (centres unmarked) [Example 99]
Found: 1.42

Lookup: Any idea what E30 came out for CC(=O)Nc1ccc(S(=O)(=O)Nc2cccc(C3Nc4ccc(C(=O)O)cc4CC3(C)C)c2)cc1 (centres unmarked) [Example 169] on AMP-activated protein kinase (AMPK)?
Found: 1.38

Lookup: Query for AMP-activated protein kinase (AMPK): what E30 does the record show for CC1(C)Cc2cc(C(=O)O)ccc2NC1c1cccc(NC(=O)N2CCOCC2)c1 (centres unmarked) [Example 21] ?
Found: 1.42

Lookup: Write down the reported E30 of CC1(C)Cc2cc(C(=O)NS(C)(=O)=O)ccc2NC1c1cccc(C(=O)Nc2ccccc2)c1 (centres unmarked) [Example 9] , test system: AMP-activated protein kinase (AMPK).
Found: 1.28

Lookup: Recorded E30 for CC(C)Oc1ccc(-c2cccc(C3Nc4ccc(C(=O)O)cc4CC3(C)C)c2)cc1 (centres unmarked) [Example 84] with AMP-activated protein kinase (AMPK), please?
Found: 1.25

Lookup: Give E30 (AMP-activated protein kinase (AMPK)) of the following molecule: CC(C)S(=O)(=O)Nc1cccc(C2Nc3ccc(C(=O)O)cc3CC2(C)C)c1 (centres unmarked) [Example 166]
Found: 1.43

Lookup: Hello, I am looking for reported E30 with AMP-activated protein kinase (AMPK) for Cc1cc(C2Nc3ccc(C(=O)O)cc3CC2(C)C)cc(N2CCOCC2)c1 (centres unmarked) [Example 63] . Could you help?
Found: 1.56

Lookup: What value of E30 on AMP-activated protein kinase (AMPK) does CC(C)c1ccc(-c2cccc(C3Nc4c(cc(Cl)cc4C(=O)O)CC3(C)C)c2)cc1 (centres unmarked) [Example 140] have?
Found: 1.34

Lookup: Item: CC1(C)Cc2cc(C(=O)O)ccc2NC1c1ccc(NC(=O)c2ccccc2)cc1 (centres unmarked) [Example 185] Test system: AMP-activated protein kinase (AMPK) Read-out: E30 Value: ?
Found: 1.22

Lookup: # get_value(readout= E30, system= AMP-activated protein kinase (AMPK)) for Cc1cc(C2Nc3ccc(C(=O)NS(C)(=O)=O)cc3CC2(C)C)cc(N2CCOCC2)c1 (centres unmarked) [Example 65]
Found: 1.46

Lookup: Item CC1(C)Cc2c(C(=O)NS(=O)(=O)C3CC3)ccc(Cl)c2NC1c1cccc(N2CCOCC2)c1 (centres unmarked) [Example 133] with AMP-activated protein kinase (AMPK) - E30?
Found: 1.2

Lookup: I'm curious: which E30 was measured for CC(C)(Nc1cccc(C2Nc3ccc(C(=O)NS(C)(=O)=O)cc3CC2(C)C)c1)C(=O)O (centres unmarked) [Example 28] tested on AMP-activated protein kinase (AMPK)?
Found: 2.5

Lookup: Param readout = E30; param system = AMP-activated protein kinase (AMPK); param query = CC(C)(C)OC(=O)N1CC(NC(=O)c2cccc(C3Nc4ccc(C(=O)O)cc4CC3(C)C)c2)C1 (centres unmarked) [Example 207] ; response: value
Found: 1.32

Lookup: Request - read-out E30 | tested on AMP-activated protein kinase (AMPK) | molecule CC1(C)Cc2cc(C(=O)O)ccc2NC1c1ccc(F)c(NC(=O)c2ccccn2)c1 (centres unmarked) [Example 180]
Found: 1.32

Lookup: Provide value of E30 for this record tested with AMP-activated protein kinase (AMPK): CC1(C)Cc2cc(C(=O)O)ccc2NC1c1ccc(NS(=O)(=O)c2cccc(F)c2)cc1 (centres unmarked) [Example 212]
Found: 1.28

Lookup: Any idea what E30 came out for CC1(C)Cc2cc(C(=O)NS(=O)(=O)C3CC3)ccc2NC1c1cc(F)cc(C2CCCCC2)c1 (centres unmarked) [Example 70] on AMP-activated protein kinase (AMPK)?
Found: 1.23

Lookup: GET /values?readout=E30&system=AMP-activated protein kinase (AMPK)&item= CC(C)(Nc1cccc(C2Nc3c(cc(Cl)cc3C(=O)O)CC2(C)C)c1)C(=O)O (centres unmarked) [Example 80]
Found: 1.72
